- MEASURED_ON: Avi-KRAS G12D (1-169) GppNHp/RAF1 RBD-3xFLAG (52-151) (Homo sapiens, UniProt P01116, G12D)
- Construct: Avi-KRAS G12D (1-169)
- Sequence (P01116 1-169 isoform P01116-2 G12D): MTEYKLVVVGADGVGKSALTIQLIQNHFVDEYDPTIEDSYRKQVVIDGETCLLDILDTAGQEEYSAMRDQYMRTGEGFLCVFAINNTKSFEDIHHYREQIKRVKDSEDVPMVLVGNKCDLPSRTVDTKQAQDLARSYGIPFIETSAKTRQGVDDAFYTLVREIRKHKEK
- ASSAY_TEXT: Raf1-KRAS G12D-GppNHP disruption HTRF assay (Biological Example 1)
- Format: binding
- APPLIED_CONDITIONS: KRAS G12D, GppNHp-loaded; class symbols
pIC50: −log10 of the molar value.
READOUT_TYPE: pIC50

// worked examples, pIC50 included
| COMPOUND | MEASURED_ON | READOUT_TYPE | RECORDED_RESULT |
| --- | --- | --- | --- |
| N#Cc1c(N)sc2c(F)ccc(-c3c(C(F)(F)F)cc4c(N5CCn6nc(C(=O)N7CCOCC7)cc6C5)nc(OCC56CCCN5CC(F)C6)nc4c3F)c12 (stereo not drawn) | Avi-KRAS G12D (1-169) GppNHp/RAF1 RBD-3xFLAG (52-151) (Homo sapiens, UniProt P01116, G12D) | pIC50 | > 7.00 |
| CCN(c1nc(OC[C@@]23CCCN2C[C@H](F)C3)nc2c(F)c(-c3ccc(F)c4sc(N)c(C#N)c34)c(C(F)(F)F)cc12)[C@H]1CCN(C(=O)OC2CC(F)C2)C1 (stereo partly drawn) [Compound 776] | Avi-KRAS G12D (1-169) GppNHp/RAF1 RBD-3xFLAG (52-151) (Homo sapiens, UniProt P01116, G12D) | pIC50 | > 7.00 |
| CCN(c1nc(OC[C@@]23CCCN2C[C@H](F)C3)nc2c(F)c(-c3ccc(F)c4sc(N)c(C#N)c34)c(C(F)(F)F)cc12)[C@H]1CCN(C(=O)c2cnn(C)c2)C1 (atropisomer, axis not shown) | Avi-KRAS G12D (1-169) GppNHp/RAF1 RBD-3xFLAG (52-151) (Homo sapiens, UniProt P01116, G12D) | pIC50 | > 7.00 |
| CCN(c1nc(OC[C@@]23CCCN2C[C@H](F)C3)nc2c(F)c(-c3ccc(F)c4sc(N)c(C#N)c34)c(C(F)(F)F)cc12)[C@H]1C[C@H](COC)N(C(=O)N(C)C)C1 (atropisomer, axis not shown) | Avi-KRAS G12D (1-169) GppNHp/RAF1 RBD-3xFLAG (52-151) (Homo sapiens, UniProt P01116, G12D) | pIC50 | 6.00 to 7.00 |
| C/C=C\C(=O)N1CC[C@H](N(CC)c2nc(OC[C@@]34CCCN3C[C@H](F)C4)nc3c(F)c(-c4ccc(F)c5sc(N)c(C#N)c45)c(C(F)(F)F)cc23)C1 (atropisomer, axis not shown) | Avi-KRAS G12D (1-169) GppNHp/RAF1 RBD-3xFLAG (52-151) (Homo sapiens, UniProt P01116, G12D) | pIC50 | > 7.00 |

Continue with the compound presented below.
According to the records, this compound CCN(c1nc(OC[C@@]23CCCN2C[C@H](F)C3)nc2c(F)c(-c3ccc(F)c4sc(N)c(C#N)c34)c(C(F)(F)F)cc12)[C@H]1CCN(C(=O)c2ccncn2)C1 (atropisomer, axis not shown) displays pIC50 of > 7.00
